experimental_target: T1, interleukin 18 binding protein (IL-18BP) (UniProt O95998 31-194); also: unit not given here
T1 sequence (looked up): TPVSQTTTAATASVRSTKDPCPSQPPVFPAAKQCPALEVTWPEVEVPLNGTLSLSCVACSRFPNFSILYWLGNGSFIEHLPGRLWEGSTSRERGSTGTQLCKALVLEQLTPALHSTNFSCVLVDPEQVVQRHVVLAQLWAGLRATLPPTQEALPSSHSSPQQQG
test_protocol: cell-based or functional assay
endpoint: HEK-Blue activity, +100 nM BP, DF-100,000

Worked cases, HEK-Blue activity, +100 nM BP, DF-100,000 given:
[
  {
    "binder": "IL-18 variant K53D, S55Q, P107M (ligand) YFGKLESKLSVIRNLNDQVLFIDQGNRPLFEDMTDSDMRDNAPRTIFIISMYDDQQPRGMAVTISVKSEKISTLSSENKIISFKEMNPPDNIKDTKSDIIFFQRSVMGHDNKMQFESSSYEGYFLASEKERDLFKLILKKEDELGDRSIMFTVQNED",
    "result": 0.14
  },
  {
    "binder": "IL-18 variant S7Y, K53H, S55M (ligand) YFGKLEYKLSVIRNLNDQVLFIDQGNRPLFEDMTDSDMRDNAPRTIFIISMYHDMQPRGMAVTISVKSEKISTLSSENKIISFKEMNPPDNIKDTKSDIIFFQRSVPGHDNKMQFESSSYEGYFLASEKERDLFKLILKKEDELGDRSIMFTVQNED",
    "result": 0.15
  }
]

Next up:
Data request: Data request, read-out HEK-Blue activity, +100 nM BP, DF-100,000, for IL-18 variant K53S, S55F, T63S, R104K, H109Y (ligand) YFGKLESKLSVIRNLNDQVLFIDQGNRPLFEDMTDSDMRDNAPRTIFIISMYSDFQPRGMAVSISVKSEKISTLSSENKIISFKEMNPPDNIKDTKSDIIFFQKSVPGYDNKMQFESSSYEGYFLASEKERDLFKLILKKEDELGDRSIMFTVQNED
Data returned: 0.09
